Value source: ChEMBL document CHEMBL5291721

assayed target: Adenosine receptor A3 (Homo sapiens); also: assay procedure not described here
Sequence (P0DMS8 whole entry): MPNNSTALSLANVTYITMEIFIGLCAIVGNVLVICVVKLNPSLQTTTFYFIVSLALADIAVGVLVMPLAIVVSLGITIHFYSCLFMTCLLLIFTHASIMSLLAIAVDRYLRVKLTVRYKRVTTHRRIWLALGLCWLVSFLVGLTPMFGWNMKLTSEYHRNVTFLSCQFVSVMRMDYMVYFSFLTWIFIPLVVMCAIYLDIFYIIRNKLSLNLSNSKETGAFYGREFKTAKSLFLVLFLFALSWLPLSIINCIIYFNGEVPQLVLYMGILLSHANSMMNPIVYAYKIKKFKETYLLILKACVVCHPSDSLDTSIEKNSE
attribute measured: AC50

molecule: O=C(O)CC(O)(CC(=O)O)C(=O)O [CITRIC ACID]
AC50: > 30 µM

molecule: CN(CC(=O)O)C(=N)N [CREATINE]
AC50: > 30 µM

molecule: O=C1[C@H]2CCCC[C@H]2C(=O)N1CCCCN1CCN(c2nsc3ccccc23)CC1 [PEROSPIRONE]
AC50: > 30 µM

molecule: CCN(CC)CCOC(=O)C(Cc1cccc2ccccc12)CC1CCCO1 (stereo not given) [NAFRONYL]
AC50: > 30 µM

molecule: Cc1nnc(SCC2=C(C(=O)O)N3C(=O)[C@@H](NC(=O)Cn4cc(Cl)c(=O)c(Cl)c4)[C@H]3SC2)s1 [CEFAZEDONE]
AC50: > 30 µM

Please go through the list and note AC50 for each molecule.
1. Nc1nc(N)nc(Nc2ccc([As]3SCC(CO)S3)cc2)n1 (stereo not given) [MELARSOPROL]
2. c1ccc2[nH]c(-c3cscn3)nc2c1 [THIABENDAZOLE]
3. CCC(=O)O[C@]1(C(=O)COC(C)=O)CC[C@H]2[C@@H]3CCC4=CC(=O)CC[C@]4(C)[C@H]3[C@@H](O)C[C@@]21C [HYDROCORTISONE ACEPONATE]
4. Cc1cc2c(OCC(O)CNC(C)C)cccc2[nH]1 (stereo not given) [MEPINDOLOL]
5. CO[C@H]1[C@@H](O)C[C@H](O[C@H]2[C@@H](O)C[C@H](O[C@H]3[C@@H](O)C[C@H](O[C@H]4CC[C@@]5(C)[C@H](CC[C@@H]6[C@@H]5C[C@@H](O)[C@]5(C)[C@@H](C7=CC(=O)OC7)CC[C@]65O)C4)O[C@@H]3C)O[C@@H]2C)O[C@@H]1C [METILDIGOXIN]
6. COc1nccnc1NS(=O)(=O)c1ccc(N)cc1
7. CC(=O)/N=c1/sc(S(N)(=O)=O)nn1C [METHAZOLAMIDE]
8. CN(C)C(=O)Oc1cccc([N+](C)(C)C)c1 [NEOSTIGMINE]

(A)
1. 1.92 µM
2. 3.73 µM
3. > 30 µM
4. > 30 µM
5. > 30 µM
6. > 30 µM
7. > 30 µM
8. > 30 µM

Please go through the list and note AC50 for each molecule.
1. CC(c1ccc(Cl)c(Cl)c1)N1N=C(N)CC1=O (stereo not given) [MUZOLIMINE]
2. N[C@@H](Cc1c[nH]c2ccc(O)cc12)C(=O)O [OXITRIPTAN]
3. CN(C)CCCN1C(=O)c2cc([N+](=O)[O-])ccc2Oc2ccccc21
4. CC(C)(C)C(=O)NCCCC(=O)O [PIVAGABINE]
5. CCOc1ccc2ccccc2c1C(=O)N[C@@H]1C(=O)N2[C@@H]1SC(C)(C)[C@@H]2C(=O)O [NAFCILLIN]
6. C[C@@H]1C[C@H]2[C@@H]3CCC4=CC(=O)C=C[C@]4(C)C3=CC[C@]2(C)[C@H]1C(=O)CN1CCN(c2cc(N3CCCC3)nc(N3CCCC3)n2)CC1 [TIRILAZAD]
7. O=P(O)(O)C(Cl)(Cl)P(=O)(O)O [CLODRONIC ACID]

(A)
["> 30 µM", "0.765 µM", "> 30 µM", "> 30 µM", "> 30 µM", "4.07 µM", "> 30 µM"]
